System Under Test: human ATR kinase (ATR/ATRIP (h)) (Homo sapiens (Human), UniProt Q13535)
Sequence (Q13535 whole entry): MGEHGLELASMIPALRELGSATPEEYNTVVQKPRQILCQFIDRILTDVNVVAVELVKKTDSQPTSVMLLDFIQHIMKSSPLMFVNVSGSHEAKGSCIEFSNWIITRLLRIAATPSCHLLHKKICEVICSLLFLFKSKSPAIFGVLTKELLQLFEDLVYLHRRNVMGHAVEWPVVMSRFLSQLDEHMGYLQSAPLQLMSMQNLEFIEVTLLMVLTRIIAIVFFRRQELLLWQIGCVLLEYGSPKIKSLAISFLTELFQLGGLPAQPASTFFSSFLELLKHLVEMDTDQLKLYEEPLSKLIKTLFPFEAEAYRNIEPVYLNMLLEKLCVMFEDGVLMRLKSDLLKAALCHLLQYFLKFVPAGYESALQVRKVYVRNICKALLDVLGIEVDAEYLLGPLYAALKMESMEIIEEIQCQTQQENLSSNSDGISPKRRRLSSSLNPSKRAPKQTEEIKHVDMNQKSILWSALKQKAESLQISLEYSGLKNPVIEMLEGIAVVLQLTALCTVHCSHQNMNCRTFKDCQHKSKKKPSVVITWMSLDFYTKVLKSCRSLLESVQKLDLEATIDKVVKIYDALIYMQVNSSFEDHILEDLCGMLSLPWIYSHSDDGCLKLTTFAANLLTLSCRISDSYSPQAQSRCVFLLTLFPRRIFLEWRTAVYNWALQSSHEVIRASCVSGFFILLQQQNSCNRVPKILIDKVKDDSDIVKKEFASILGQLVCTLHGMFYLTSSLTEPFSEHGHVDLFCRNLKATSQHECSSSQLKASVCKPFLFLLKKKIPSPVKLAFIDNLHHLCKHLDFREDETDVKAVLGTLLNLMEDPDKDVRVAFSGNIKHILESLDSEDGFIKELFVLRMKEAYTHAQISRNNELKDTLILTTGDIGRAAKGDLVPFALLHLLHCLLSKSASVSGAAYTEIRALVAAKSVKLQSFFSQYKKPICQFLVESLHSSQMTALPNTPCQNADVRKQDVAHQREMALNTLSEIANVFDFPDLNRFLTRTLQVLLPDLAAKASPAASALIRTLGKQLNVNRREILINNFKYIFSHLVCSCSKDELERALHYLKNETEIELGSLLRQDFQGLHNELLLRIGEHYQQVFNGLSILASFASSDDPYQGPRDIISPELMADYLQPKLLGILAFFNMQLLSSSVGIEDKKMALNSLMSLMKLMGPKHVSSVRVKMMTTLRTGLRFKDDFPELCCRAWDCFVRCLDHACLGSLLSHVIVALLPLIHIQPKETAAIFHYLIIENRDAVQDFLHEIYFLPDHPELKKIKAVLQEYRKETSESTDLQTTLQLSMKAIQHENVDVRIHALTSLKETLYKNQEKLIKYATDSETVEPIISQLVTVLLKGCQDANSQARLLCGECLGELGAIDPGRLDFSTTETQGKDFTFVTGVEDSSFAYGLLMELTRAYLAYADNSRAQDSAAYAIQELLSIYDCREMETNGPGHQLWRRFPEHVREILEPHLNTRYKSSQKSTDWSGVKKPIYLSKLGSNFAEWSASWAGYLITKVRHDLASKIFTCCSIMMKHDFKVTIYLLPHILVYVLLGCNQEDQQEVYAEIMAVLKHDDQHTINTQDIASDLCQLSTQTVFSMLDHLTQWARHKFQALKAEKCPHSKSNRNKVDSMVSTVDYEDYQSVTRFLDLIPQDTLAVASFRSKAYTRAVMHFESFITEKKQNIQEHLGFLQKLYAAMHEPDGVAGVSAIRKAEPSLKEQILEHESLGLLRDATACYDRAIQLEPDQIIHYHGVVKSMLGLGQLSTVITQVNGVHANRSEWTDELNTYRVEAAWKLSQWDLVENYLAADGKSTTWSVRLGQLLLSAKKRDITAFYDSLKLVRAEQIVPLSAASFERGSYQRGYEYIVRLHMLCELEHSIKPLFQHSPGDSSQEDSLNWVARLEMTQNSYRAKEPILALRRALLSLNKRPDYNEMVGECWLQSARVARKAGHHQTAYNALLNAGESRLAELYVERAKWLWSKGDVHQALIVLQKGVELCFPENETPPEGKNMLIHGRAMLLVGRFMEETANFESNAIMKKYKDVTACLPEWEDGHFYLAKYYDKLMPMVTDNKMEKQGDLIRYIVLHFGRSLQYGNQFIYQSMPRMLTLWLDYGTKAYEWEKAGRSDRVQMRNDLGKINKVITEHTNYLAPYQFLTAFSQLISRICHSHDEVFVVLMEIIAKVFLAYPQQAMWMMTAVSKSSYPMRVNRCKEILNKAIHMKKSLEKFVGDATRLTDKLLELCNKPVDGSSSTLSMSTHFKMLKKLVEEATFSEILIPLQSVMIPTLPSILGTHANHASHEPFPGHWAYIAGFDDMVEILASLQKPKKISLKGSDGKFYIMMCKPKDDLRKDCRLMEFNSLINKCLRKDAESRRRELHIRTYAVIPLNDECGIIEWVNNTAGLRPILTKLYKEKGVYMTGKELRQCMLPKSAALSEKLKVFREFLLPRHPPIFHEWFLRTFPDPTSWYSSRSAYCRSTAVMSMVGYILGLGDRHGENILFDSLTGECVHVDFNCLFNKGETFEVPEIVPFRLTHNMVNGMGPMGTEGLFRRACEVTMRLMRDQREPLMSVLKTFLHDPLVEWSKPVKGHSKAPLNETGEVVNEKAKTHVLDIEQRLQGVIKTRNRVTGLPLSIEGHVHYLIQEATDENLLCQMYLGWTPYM
Sequence (Q8WXE1 whole entry partner): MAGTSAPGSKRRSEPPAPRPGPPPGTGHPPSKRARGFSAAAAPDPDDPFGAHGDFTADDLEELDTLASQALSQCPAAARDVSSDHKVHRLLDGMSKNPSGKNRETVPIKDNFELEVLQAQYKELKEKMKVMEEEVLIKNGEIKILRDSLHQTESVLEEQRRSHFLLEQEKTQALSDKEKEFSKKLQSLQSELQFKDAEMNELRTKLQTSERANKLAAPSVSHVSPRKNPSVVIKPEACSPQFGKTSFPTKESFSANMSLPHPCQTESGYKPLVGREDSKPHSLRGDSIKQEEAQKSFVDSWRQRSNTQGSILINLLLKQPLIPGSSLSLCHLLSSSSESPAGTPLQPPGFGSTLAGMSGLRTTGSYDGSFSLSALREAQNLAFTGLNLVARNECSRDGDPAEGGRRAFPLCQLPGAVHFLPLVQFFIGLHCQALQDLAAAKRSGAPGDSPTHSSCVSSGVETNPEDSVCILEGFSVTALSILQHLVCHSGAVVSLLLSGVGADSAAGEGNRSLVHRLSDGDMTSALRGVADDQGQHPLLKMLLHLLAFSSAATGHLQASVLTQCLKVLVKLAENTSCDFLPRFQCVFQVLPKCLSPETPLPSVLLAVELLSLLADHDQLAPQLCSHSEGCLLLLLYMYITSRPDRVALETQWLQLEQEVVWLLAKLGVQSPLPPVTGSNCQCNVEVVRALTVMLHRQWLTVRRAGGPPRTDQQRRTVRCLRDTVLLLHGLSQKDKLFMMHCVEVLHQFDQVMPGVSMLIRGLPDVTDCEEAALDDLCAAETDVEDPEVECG
Measurement Description: ATR enzyme activity in vitro (HTRF kinase assay)
Condition Summary: 10 μM ATP, GST-cMyc-p53 substrate
pIC50: −log10 of the molar value.
// label = MET if pIC50 is not less than 7, otherwise NOT MET

Compound: Cc1nnn(C)c1-c1cc(-c2c(F)ncc3[nH]ccc23)nc(N2CCOC[C@H]2C)c1 [Compound 1]
Classification: MET
--
Compound: Cc1n[nH]c(C)c1-c1cc(-c2c(F)ncc3[nH]ccc23)nc(N2CCOC[C@H]2C)c1 [Compound 9]
Classification: MET
--
Compound: Cc1ccccc1-c1cc(-c2c(F)ncc3[nH]ccc23)nc(N2CCOC[C@H]2C)c1 [Compound 8]
Classification: NOT MET
--
Compound: Cc1nn(C)cc1-c1cc(-c2c(F)ncc3[nH]ccc23)nc(N2CCOC[C@H]2C)c1 [Compound 13]
Classification: NOT MET
--
Compound: COc1cc(C)c(-c2cc(-c3c(F)ncc4[nH]ccc34)nc(N3CCOC[C@H]3C)c2)cn1 [Compound 10]
Classification: NOT MET

# ---- query compound ----
For this compound, is measured pIC50 7 or higher? C[C@@H]1COCCN1c1cc(-c2cnnn2C)cc(-c2c(F)ncc3[nH]ccc23)n1 [Compound 6]
NOT MET

====

Measurement Description: In vivo pharmacokinetics in female Balb/c Nude mice
Condition Summary: mouse, plasma, oral 10 mg/kg
Endpoint Name: AUC(0-t) (µM·h)
Numbers only, in µM·h.

Give the measured AUC(0-t) of Cc1nnn(C)c1-c1cc(-c2c(F)ncc3[nH]ccc23)nc(N2CCOC[C@H]2C)c1 [Compound 1] .
23

====

Measurement Description: In vivo pharmacokinetics in female Balb/c Nude mice
Condition Summary: mouse, plasma, intravenous 1 mg/kg
Protocol: Test sample: On the basis of the above experiments, compound 1 was selected for further experiments. Experimental methods: The purpose of this study was to determine the pharmacokinetic parameters of compound 1 and to calculate its oral bioavailability in female Balb/c Nude mice. This project used 4 female Balb/c Nude mice. […] The collected samples were then analyzed by LC/MS/MS and data were collected. […]
Endpoint Name: clearance (mL/min/kg)
Give bare numbers, in mL/min/kg.

Give the measured clearance of Cc1nnn(C)c1-c1cc(-c2c(F)ncc3[nH]ccc23)nc(N2CCOC[C@H]2C)c1 .
15.8

====

Measurement Description: In vivo pharmacokinetics in female Balb/c Nude mice
Condition Summary: mouse, plasma, intravenous 1 mg/kg, read-out: Vdss
Endpoint Name: Vd (L/kg)
Give bare numbers, in L/kg.

Give the measured Vd of Cc1nnn(C)c1-c1cc(-c2c(F)ncc3[nH]ccc23)nc(N2CCOC[C@H]2C)c1 .
1.65

====

Measurement Description: In vivo pharmacokinetics in female Balb/c Nude mice
Condition Summary: mouse, plasma, oral 10 mg/kg
Endpoint Name: half-life (h)
One number for each entry, in h.

Give the measured half-life of Cc1nnn(C)c1-c1cc(-c2c(F)ncc3[nH]ccc23)nc(N2CCOC[C@H]2C)c1 .
1.4

====

Measurement Description: In vivo pharmacokinetics in female Balb/c Nude mice
Condition Summary: mouse, plasma, oral 25 mg/kg
Experimental: Test sample: On the basis of the above experiments, compound 1 was selected for further experiments. Experimental methods: The purpose of this study was to determine the pharmacokinetic parameters of compound 1 and to calculate its oral bioavailability in female Balb/c Nude mice. This project used 4 female Balb/c Nude mice. […] The collected samples were then analyzed by LC/MS/MS and data were collected. […]
Endpoint Name: AUC(0-t) (µM·h)
Give bare numbers, in µM·h.

Give the measured AUC(0-t) of Cc1nnn(C)c1-c1cc(-c2c(F)ncc3[nH]ccc23)nc(N2CCOC[C@H]2C)c1 .
82
